assay: chemical genetic growth profiling, strain panel (AID 1159580);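 also: tested at 20 µM; growth read once vehicle control cultures reached saturation at 30 °C; 1 = growth at the plate median or of vehicle wells; lower values mean less growth of the strain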; settings: S. cerevisiae deletion strains, growth OD, locus YPL078C, strain atp4, hits give low values
In all, about 5,500 compounds went through this assay and about 2,000 (36%) were called active. Inconclusive results (about 18%) are left out. Some of the results follow.
PROPERTY_MEASURED: normalized growth
Give the figure by itself; no unit, no explanation.

# example entries with known answers
1) Nc1ccc(C(=O)O)c(O)c1
0.946
2) COc1cc([C@@H]2c3cc4c(cc3[C@H](O)[C@H]3COC(=O)[C@@H]23)OCO4)cc(OC)c1OC
1.02
3) CC(=O)O[C@H]1C[C@H](O[C@H]2[C@@H](O)C[C@H](O[C@H]3[C@@H](O)C[C@H](O[C@H]4CC[C@@]5(C)C(CCC6C5C[C@@H](O)[C@]5(C)[C@@H](C7=CC(=O)OC7)CC[C@]65O)C4)O[C@@H]3C)O[C@@H]2C)O[C@H](C)[C@H]1O[C@@H]1O[C@H](CO)[C@@H](O)[C@H](O)[C@H]1O (stereo partly specified)
1.02

Ask: If you can, please state the reported normalized growth value of CC(=O)Nc1ccc(OC(=O)c2ccccc2O)cc1 .
Reply: 0.83

Ask: If you can, please state the reported normalized growth value of O=C1CN2Cc3c(ccc(Cl)c3Cl)N=C2N1 .
Reply: 0.995

###

experiment: chemical genetic growth profiling, strain panel (AID 1159580); settings: S. cerevisiae deletion strains, growth OD, locus YOR070C, strain gyp1, hits give low values
Screen size: about 5,500 compounds; about 2,000 (36%) were called active. Another 18% or so got no clear call; they are omitted. The list shows a part of the results.
PROPERTY_MEASURED: normalized growth
Give the figure by itself; no unit, no explanation.

# example entries with known answers
1. CC(=O)O[C@H]1C[C@@H](O)C(C)(C)C2C[C@@H](OC(C)=O)[C@]3(C)C(CC[C@@]4(C)[C@H](c5ccoc5)OC(=O)C5OC543)[C@]21C (some centres undefined)
1.01
2. N[C@H](CO)Cc1ccccc1
1.01

Ask: If you can, please state the reported normalized growth value of CC(=O)O[C@@H]1CC2C(C)(C)CCC(=O)[C@]2(C)C2CC[C@@]3(C)[C@H](c4ccoc4)OC(=O)C4OC43[C@@]21C (some centres undefined) .
Reply: 1

Ask: If you can, please state the reported normalized growth value of CC[N+]1(C)CCCC(OC(=O)C(O)(c2ccccc2)c2ccccc2)C1 (centres undefined) .
Reply: 1.01

Ask: If you can, please state the reported normalized growth value of S=c1ccss1 .
Reply: 0.911

Ask: If you can, please state the reported normalized growth value of CCOC(=O)C1C(C=C(C)C)C1(C)C (centres undefined) .
Reply: 0.996

Ask: If you can, please state the reported normalized growth value of CC(=O)O[C@@H]1CC2C(C)(C)C(=O)CC[C@]2(C)C2CC[C@@]3(C)[C@H](c4ccoc4)OC(=O)C4OC43[C@@]21C (some centres undefined) .
Reply: 0.989

Ask: If you can, please state the reported normalized growth value of CN1CCN2c3ccccc3Cc3ccccc3C2C1 (centres undefined) .
Reply: 0.999

Ask: If you can, please state the reported normalized growth value of CC(=O)O[C@@H]1CC2C(C)(C)[C@H](O)C[C@H](O)[C@]2(C)C2CC[C@@]3(C)[C@H](c4ccoc4)OC(=O)[C@H]4O[C@]43[C@@]21C (some centres undefined) .
Reply: 0.999

###

normalized growth overview
experiment: chemical genetic growth profiling, strain panel (AID 1159580); conditions: S. cerevisiae deletion strains, growth OD, locus YGL240W, strain doc1, hits give low values
Among all 5,500 compounds or so, about 2,000 (36%) were called active. Inconclusive results (about 18%) are left out. This is one part of the list.
Give the figure by itself; no unit, no explanation.

1. CC(C)(O)[C@@H]1CC[C@](C)([C@H]2[C@@H](O)C[C@@]3(C)C4C[C@H](O[C@@H]5O[C@H](CO)[C@@H](O)[C@H](O)[C@H]5O)C5C(C)(C)[C@@H](O[C@@H]6OC[C@@H](O)[C@H](O)[C@H]6O)CC[C@@]56C[C@@]46CC[C@]23C)O1 (stereo partly drawn)
1
2. FC(F)(F)C(Cl)Br (stereo not drawn)
1.02

Continue with the compound presented below.
Ask: If you can, please state the reported normalized growth value of CC1(C)O[C@@H]2CC3C4C[C@H](F)C5=CC(=O)C=C[C@]5(C)[C@@]4(F)[C@@H](O)C[C@]3(C)[C@]2(C(=O)CO)O1 (stereo partly drawn) .
Reply: 0.997

###

normalized growth overview
test: chemical genetic growth profiling, strain panel (AID 1159580);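 also: tested at 20 µM; growth read once vehicle control cultures reached saturation at 30 °C; 1 = growth at the plate median or of vehicle wells; lower values mean less growth of the strain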; settings: S. cerevisiae deletion strains, growth OD, locus YEL003W, strain gim4, hits give low values
In all, about 5,500 compounds went through this assay and about 2,000 (36%) were called active. Inconclusive results (about 18%) are left out. The list shows a part of the results.
Give the figure by itself; no unit, no explanation.

Ask: If you can, please state the reported normalized growth value of CC(C)(O)[C@@H]1CC[C@](C)([C@H]2[C@@H](O)C[C@@]3(C)C4C[C@H](O[C@@H]5O[C@H](CO)[C@@H](O)[C@H](O)[C@H]5O)C5C(C)(C)[C@@H](O[C@@H]6OC[C@@H](O)[C@H](O)[C@H]6O)CC[C@@]56C[C@@]46CC[C@]23C)O1 (some centres not stated) .
Reply: 0.991

Ask: If you can, please state the reported normalized growth value of CC(=O)O[C@H]1C[C@H](O[C@H]2[C@@H](O)C[C@H](O[C@H]3[C@@H](O)C[C@H](O[C@H]4CC[C@@]5(C)C(CCC6C5C[C@@H](O)[C@]5(C)[C@@H](C7=CC(=O)OC7)CC[C@]65O)C4)O[C@@H]3C)O[C@@H]2C)O[C@H](C)[C@H]1O[C@@H]1O[C@H](CO)[C@@H](O)[C@H](O)[C@H]1O (some centres not stated) .
Reply: 0.995

###

assay: chemical genetic growth profiling, strain panel (AID 1159580);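 also: tested at 20 µM; growth read once vehicle control cultures reached saturation at 30 °C; 1 = growth at the plate median or of vehicle wells; lower values mean less growth of the strain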; conditions: S. cerevisiae deletion strains, growth OD, locus YPL078C, strain atp4, hits give low values
The campaign covered roughly 5,500 compounds. About 2,000 (36%) were called active. Roughly 18% stayed inconclusive and do not appear here. The list shows a part of the results.
Friendly reminder: normalized growth below 1 is met, at or above is not met.

Ask: A record lists COc1c(O)cc2c(-c3ccccc3)cc(=O)oc2c1OC . Is its normalized growth below 1?
Reply: met

Ask: A record lists Cn1nnnc1SCC1=C(C(=O)O)N2C(=O)C(NC(=O)C(O)c3ccccc3)C2SC1 (configuration not stated) . Is its normalized growth below 1?
Reply: met

Ask: A record lists CC(C)(C)C(=O)C(Oc1ccc(Cl)cc1)n1cncn1 (configuration not stated) . Is its normalized growth below 1?
Reply: met

Ask: A record lists CC(C)(Oc1ccc(Cl)cc1)C(=O)O . Is its normalized growth below 1?
Reply: not met

Ask: A record lists COc1c(O)cccc1O . Is its normalized growth below 1?
Reply: not met

Ask: A record lists O=c1c2ccccc2oc2ccccc12 . Is its normalized growth below 1?
Reply: met

###

assay: chemical genetic growth profiling, strain panel (AID 1159580);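 also: tested at 20 µM; growth read once vehicle control cultures reached saturation at 30 °C; 1 = growth at the plate median or of vehicle wells; lower values mean less growth of the strain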; settings: S. cerevisiae deletion strains, growth OD, locus YJR043C, strain POL32
The campaign covered roughly 5,500 compounds. About 2,000 (36%) were called active. About 18% were inconclusive and are not listed. Cut-off read from the data, not from the text of the source: active = normalized growth mostly below about 0.91 (no sharp cut-off); inconclusive = no clear call, values can overlap the other calls; inactive = mostly above about 0.92. This is one part of the list.
// one of YES = active, NO = inactive, no free text

Would you please look over these solved cases?
1. Nc1ccc(C(=O)O)c(O)c1
NO
2. O=C1NC(c2ccccc2Cl)Nc2ccccc21 (stereo not given)
NO
3. COc1cc2c3cc1Oc1cc(ccc1O)C[C@@H]1c4c(cc(OC)c(O)c4Oc4ccc(cc4)C[C@@H]3N(C)CC2)CC[N+]1(C)C
NO

Ask: Which outcome did this test record for the compound OC1C(O)C(O)C(O)C(O)C1O (stereo not given) ?
Reply: NO

Ask: Which outcome did this test record for the compound c1ccc(Sc2c(-c3ccccc3)nc3ccccn23)cc1 ?
Reply: NO

Ask: Which outcome did this test record for the compound CCCCCCCCCCc1ccc(-c2ccccc2)cc1 ?
Reply: NO

Ask: Which outcome did this test record for the compound CN1CCc2c(c3ccccc3n2Cc2ccccc2)C1 ?
Reply: NO

Ask: Which outcome did this test record for the compound C[C@@H]1CC[C@@]2(OC1)OC1C(O)C3C4CC[C@H]5C[C@H](O[C@@H]6O[C@H](CO)[C@H](O[C@@H]7O[C@H](CO)[C@@H](O)[C@H](O[C@@H]8OC[C@@H](O)[C@H](O)[C@H]8O)[C@H]7O[C@@H]7O[C@H](CO)[C@H](O)[C@H](O[C@@H]8O[C@H](CO)[C@@H](O)[C@H](O)[C@H]8O)[C@H]7O)[C@H](O)[C@H]6O)[C@H](O)C[C@]5(C)C4CC[C@]3(C)C1[C@@H]2C (stereo not given in full) ?
Reply: YES
